- System: HCV replicon
- protocol description: HCV replicon replication assay (NPTII ELISA)
- Format: cell-based, Hepatitis C virus (Huh-7 cells)
- condition parameters: Hepatitis C virus, Huh-7, 72 h, inhibition of HCV replicon replication in Huh-7 HCV replicon-containing cells, three days incubation, NPT level by ELISA; read-out: EC50

# molecule, assay target, EC50
rows = [
    ("C/C=N/N(c1ccc(OCCCCCCCC)cc1)c1nc(-c2cccnc2)cs1 [Compound 190]", "HCV replicon", "< 1 µM"),
    ("C/C=N/N(c1ccc(OCCCCCCCC)c(C(F)(F)F)c1)c1nc(-c2cccnc2)c(F)s1 [Compound 191]", "HCV replicon", "1 to 10 µM"),
    ("CCCCOc1ccc(N(C(N)=O)c2nc(-c3ccncc3)cs2)cc1C(F)(F)F [Compound 137]", "HCV replicon", "< 1 µM"),
    ("CCCCCOc1ccc(N(C)c2nc(C(=O)Nc3ccc(C#N)cc3)cs2)cc1C(F)(F)F [Compound 5]", "HCV replicon", "> 10 µM"),
    ("CCCCCOc1ccc(N(C(=O)c2cc(C)on2)c2nc(-c3nc4ccccc4s3)cs2)cc1C(F)(F)F [Compound 94]", "HCV replicon", "< 1 µM"),
    ("CCCCCCCCc1ccc(N(C(=O)CN(C)C)c2nc(-c3cccnc3)c(F)s2)cc1C(F)(F)F [Compound 170]", "HCV replicon", "< 1 µM"),
    ("CCCCCCCCOc1ccc(N(C(=O)COC(C)=O)c2nc(-c3cccnc3)c(F)s2)cc1C(F)(F)F [Compound 168]", "HCV replicon", "< 1 µM"),
    ("CCCCCOc1ccc2c(c1)[nH]c(=O)n2-c1nc(-c2cccnc2)cs1 [Compound 127]", "HCV replicon", "1 to 10 µM"),
    ("CCCCCCCCOc1ccc(N(C(=O)C(=O)OC)c2nc(-c3ccc(Cl)s3)cs2)cc1 [Compound 97]", "HCV replicon", "< 1 µM"),
    ("CCCCCCCCc1ccc(N(C(=O)OCCN(C)C)c2nc(-c3cccnc3)c(F)s2)cc1C(F)(F)F [Compound 179]", "HCV replicon", "< 1 µM"),
    ("CCCCCOc1ccc(N(C(C)=O)c2nc(C(=O)Nc3cccnc3)cs2)cc1C(F)(F)F [Compound 7]", "HCV replicon", "1 to 10 µM"),
    ("CCCCCCCCOc1ccc(N(C(=O)c2cc(C)on2)c2nc(-c3ccc(Cl)s3)cs2)cc1 [Compound 89]", "HCV replicon", "< 1 µM"),
    ("CCCCCOc1ccc(N(C(N)=O)c2nc(-c3ccc(F)cc3)cs2)cc1C(F)(F)F [Compound 69]", "HCV replicon", "< 1 µM"),
    ("CCCCOc1ccc(N(C(N)=O)c2nc(-c3ccc4c(c3)NC(=O)CO4)cs2)cc1C(F)(F)F [Compound 134]", "HCV replicon", "1 to 10 µM"),
    ("CCCCCOc1ccc(N(C(N)=O)c2nc(-c3ccccn3)cs2)cc1F [Compound 112]", "HCV replicon", "1 to 10 µM"),
    ("CCCCCOc1ccc(N(C(C)=O)c2nc(-c3ccc(CN(C)C)nc3)cs2)cc1C(F)(F)F [Compound 16]", "HCV replicon", "1 to 10 µM"),
    ("CCCCCCOc1ccc(N(C(N)=O)c2nc(-c3ccc(C)nc3)cs2)cc1 [Compound 143]", "HCV replicon", "1 to 10 µM"),
    ("CCCCCCCCOc1ccc(N(C(=O)C(N)=O)c2nc(-c3cccnc3)cs2)cc1C(F)(F)F [Compound 131]", "HCV replicon", "< 1 µM"),
    ("CCCCCOc1ccc(N(C(=O)C(=O)OC)c2nc(-c3ccc4[nH]c(=O)oc4c3)cs2)cc1C(F)(F)F [Compound 100]", "HCV replicon", "< 1 µM"),
    ("CCCCCCCCOc1ccc(N(C(N)=O)c2nc(-c3cccnc3)c(F)s2)cc1C(F)(F)F [Compound 176]", "HCV replicon", "< 1 µM"),
    ("CCCCCCCOc1ccc(N(C(=O)C(=O)OC)c2nc(-c3cccnc3)cs2)cc1 [Compound 40]", "HCV replicon", "< 1 µM"),
    ("CCCCCOc1ccc(N(C(N)=O)c2nc(-c3ccc(F)cc3)cs2)cc1F [Compound 111]", "HCV replicon", "< 1 µM"),
    ("CCCCCOc1ccc(N(C(=O)OC)c2nc(-c3ccc(F)cc3)cs2)cc1F [Compound 46]", "HCV replicon", "1 to 10 µM"),
    ("CCCCCCCCOc1ccc(N(C(=O)CCC(=O)O)c2nc(-c3cccnc3)c(F)s2)cc1C(F)(F)F [Compound 163]", "HCV replicon", "< 1 µM"),
    ("CCCCCCCCc1ccc(N(C(=O)C(=O)OC)c2nc(-c3cccnc3)cs2)cc1 [Compound 39]", "HCV replicon", "< 1 µM"),
    ("CCCCCCCCOc1ccc(N(C(N)=O)c2nc(-c3ccc(C(=O)N(C)C)nc3)cs2)cc1 [Compound 78]", "HCV replicon", "> 10 µM"),
    ("CCCCOc1ccc(N(C(N)=O)c2nc(-c3cccnc3)cs2)cc1C(F)(F)F [Compound 136]", "HCV replicon", "< 1 µM"),
    ("CCCCCOc1ccc(N(C(=O)C(=O)OC)c2nc(CN(C)C)cs2)cc1C(F)(F)F [Compound 23]", "HCV replicon", "1 to 10 µM"),
    ("CCCCCCCCOc1ccc(N(C(C)=O)c2ncc(-c3cccnc3)s2)cc1C(F)(F)F [Compound 194]", "HCV replicon", "< 1 µM"),
    ("NC(=O)N(c1ccc(OCC2CCCCC2)c(F)c1)c1nc(-c2ccccn2)cs1 [Compound 118]", "HCV replicon", "1 to 10 µM"),
    ("CCCCCOc1ccc(N(C(=O)C(=O)OC)c2nc(-c3ccc(F)cc3)cs2)cc1C(F)(F)F [Compound 38]", "HCV replicon", "< 1 µM"),
    ("CCCCCCOc1ccc(N(C(N)=O)c2nc(-c3ccc(F)cc3)cs2)cc1 [Compound 122]", "HCV replicon", "< 1 µM"),
]

These measurements were taken from patent US20070213301A1.
